Each recorded value in this set is attributed to paper PMC10341658.

tested on: MCF-7; assay: MTT anti-proliferative assay, MCF-7; assay type: cell-based, human; settings: Homo sapiens, MCF7, 72 h, 72 h of exposure, MTT, mean ± S.D. of three observations
OBSERVED PROPERTY: pIC50
API: returns pIC50 as number; meaning -log10 of concentration in mol/L.

Just so you know, measured pIC50 for CCOC(=O)c1sc2ncnc(Nc3ccc(S(=O)(=O)Nc4ncccn4)cc3)c2c1C came out at 4.85

GET /value?item= COc1cccc2c1C(=O)c1c(O)c3c(c(O)c1C2=O)C[C@@](O)(C(=O)CO)C[C@@H]3O[C@H]1C[C@H](N)[C@H](O)[C@H](C)O1 [Doxorubicin, reference compound] &field=pIC50 returns 5.80

# pIC50 (compound: N=C(N)NS(=O)(=O)c1ccc(Nc2ncnc3sc4c(c23)CCCC4)cc1 ) is 4.45

Recorded pIC50 (compound O=S(=O)(Nc1ncccn1)c1ccc(Nc2ncnc3sc4c(c23)CCCC4)cc1 ): 4.65

For this compound ( Cc1cc(NS(=O)(=O)c2ccc(Nc3ncnc4sc5c(c34)CCCC5)cc2)no1 ), measured pIC50 is 4.17

----------
Test system: MCF-7
Test: MTT anti-proliferative assay, MCF-7
Type: cell-based, human
Conditions: Homo sapiens, MCF7, 72 h, 72 h of exposure, MTT, mean ± S.D. of three observations
Method: The cytotoxic effect of the synthesized compounds was estimated against human breast cancer cell lines (MCF-7 and MDA-MB231). MTT (3-[4,5-dimethylthiazol-2-yl]-2,5 diphenyltetrazolium bromide) assay was used to study the anticancer activity of all derivatives against breast cancer cells MCF-7and MDAMB231 (obtained from ATCC, Manassas, VA, USA). […] After the exposure, cytotoxicity was assessed following the MTT Assay Kit protocol (Abcam, Cambridge, UK) as reported earlier.
pIC50: −log10 of the molar value.
OBSERVED PROPERTY: pIC50

Entry CCOC(=O)c1sc2ncnc(Nc3ccc(S(=O)(=O)NC(=N)N)cc3)c2c1C [Compound 4bi] ; pIC50 = > 5.00

The reported value for CCOC(=O)c1sc2ncnc(Cl)c2c1C [Compound 3b] in terms of pIC50 is > 5.00

Form field pIC50, entry CCOC(=O)c1sc2ncnc(Nc3ccc(S(=O)(=O)Nc4cc(C)on4)cc3)c2c1C [Compound 4biii] : > 5.00
